procedure_details: protein stability index of a GFP-peptide fusion (GPS, HEK-293T) (PSI 1-6); higher = more stable;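 further: 24-mer peptide tiles fused after GFP, lentivirally expressed, FACS-sorted into six equal bins by GFP/DsRed ratio, decoded by Illumina sequencing, PSI is the read-weighted mean bin number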
details: treatment: DMSO; c terminus: a fixed tail appended
Classify as follows. Reported protein stability index greater than or equal to 4: 1.0. Reported protein stability index below: 0.0.

Below are worked cases with known answers.
LTRFLSRVIKCDPDCLRACQEQIE [CCND1] | 0.0
VDDLKGSLKEDLTQHKFICEQCGK [SPRY1] | 1.0
NEEETPSCMASLWTAPLVMRTTNL [CDC25A] | 0.0
QALQAGPEGARRGLGVLRALGSRG [FANCE] | 1.0

Please check the record PEDLQTDLAKLVDQQNPTLGETPE [ZNF449] and state if its protein stability index is at or above 4.
1.0

Please check the record LLTGETEADPEMIKRAEDYGPVEV [CLPTM1] and state if its protein stability index is at or above 4.
1.0

Please check the record PSPSTLEPHPRPLLQRELMVPGTR [TNXB] and state if its protein stability index is at or above 4.
1.0

Please check the record ISRLEQCGINANDVKKLEEAGFHT [RAD51] and state if its protein stability index is at or above 4.
0.0

Please check the record PDAPDHTSETSHSPLYADPYTPPA [PLEKHN1] and state if its protein stability index is at or above 4.
1.0

* * *

procedure_details: protein stability index of a GFP-peptide fusion (GPS, HEK-293T) (PSI 1-6); higher = more stable
details: treatment: DMSO; c terminus: a fixed tail appended
metric_name: protein stability index
Give bare numbers.

Worked cases, answers included:
NLTSPASITFTTGLEAPRDLEAKE [TNXB] | 5.21
AKLVDLPCVIESLRTLDKKTFYKT [TAF7L] | 2.52
EEGIVSPSDLDLVMSEGLGMRYAF [CRYL1] | 2.27

// each listed sequence needs a value for protein stability index
1. QRTIMKPLEYQFKSQIMSLSHSPQ [TLE6]
2. AIIASLTFLYTLLREVIHPLATSH [STEAP1]
3. HPWKWSNGKEFNNWFNVTGSDKCV [CD69]
4. GSMEALNLKQLRKRGSIPTSLTAL [PPFIA4]
5. SRDGATGHVLLTDSEFSMQEPMVP [PPFIA4]

2.89
3.25
2.58
3.11
4.6

* * *

procedure_details: protein stability index of a GFP-peptide fusion (GPS, HEK-293T) (PSI 1-6); higher = more stable
details: treatment: DMSO; c terminus: a fixed tail appended
Classify as follows. Reported protein stability index greater than or equal to 3: TRUE. Reported protein stability index below: FALSE.

Below are worked cases with known answers.
EWIRFDQSNVLCSIFGICMVFSGL [PTGFR] | FALSE
LLLDCGAEVNAVDNEGNSALHIIV [FEM1B] | FALSE
SFIKNSDSFDKFEFCEPAFVVGNC [PCMTD1] | FALSE
DPQLEIAYRGNCKDVSRCVAERKY [SMOC2] | TRUE
GGSGGGSHHHHQSRGACTSHDPQS [KCNA4] | TRUE

Please look at the following sequence next.
Please check the record NVYRKRRKYFADLAMNYKHGDPIP [TPH1] and state if its protein stability index is at or above 3.
FALSE

* * *

Answer each item with its documented protein stability index.
procedure_details: protein stability index of a GFP-peptide fusion (GPS, HEK-293T) (PSI 1-6); higher = more stable
details: treatment: DMSO; c terminus: a fixed tail appended
Numbers only.

Worked cases, answers included:
TFDVDEYEHYERVENGDFNWIVPG [CDC14A] | 4.11
GNNLHNASIPEHLAYGSVITVKNL [POMT2] | 3.05
LKISPVTLKEAYVQKLVKVCTDTD [TENT5C] | 2.94

// each listed sequence needs a value for protein stability index
1. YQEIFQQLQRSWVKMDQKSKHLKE [TRIM43]
2. GEDQAFGDWLLTANGSEIHKHVHF [SLC22A15]
3. PSQRLVQNCLWTLRNLSDAATKQE [CTNNB1]
4. IERQWGNLLGEGQHKCDECGKSFT [ZSCAN9]
5. DGNSLLSSIECYDPIIDSWEVVTS [KLHL12]
6. GLLLESLVPFIVNDNITNNFFRFL [DYNC2LI1]
7. FLRQKVLSLPLPDPLKYYLLYYRE [PCMTD2]
8. KLPNDSRVERRFHFSQSLTVIHDF [FAF2]

[2.41, 3.03, 3.31, 3.79, 3.29, 2.9, 2.24, 2.17]

// each listed sequence needs a value for protein stability index
1. TLRRIQASMAPAAALPPVPSPPAA [SERTAD1]
2. GEEQAQLLHVSSPNLASDSDLSRR [KCNA1]

1. 3.6
2. 5.36

// each listed sequence needs a value for protein stability index
1. RKRRRNGSKEGNHHSTQPKRNKRN [FAM104B]
2. ADAISENYRIMSYFKEAELKDLLL [WEE1]

1: 5.22; 2: 2.61
